Biological target: HLA-B*57:01
Assay: IEDB peptide-MHC binding, purified MHC/direct/fluorescence; filed as Kd, often an IC50 or EC50 that approximates it; bounds were set here for any values at or beyond the usual limits of such assays
Settings: source organism: West Nile virus
pKd: −log10 of the molar value.

{"columns": ["entry sequence", "test system", "pKd"],
 "data": [
  ["GSRAIWFMW", "HLA-B*57:01", 7.42]
]}

###

Molecular target: HLA-A*30:02
Assay: IEDB peptide-MHC binding, purified MHC/competitive/radioactivity; filed as Kd, often an IC50 or EC50 that approximates it; bounds were set here for any values at or beyond the usual limits of such assays
Conditions: source organism: Mammarenavirus juninense
pKd: −log10 of the molar value.

{"columns": ["entry sequence", "test system", "pKd"],
 "data": [
  ["SMRSVQRNTV", "HLA-A*30:02", 5.10],
  ["IAMGYVVSSF", "HLA-A*30:02", 6.66]
]}

###

Target: HLA-A*11:01
Test: IEDB peptide-MHC binding, purified MHC/competitive/fluorescence; filed as Kd, often an IC50 or EC50 that approximates it; bounds were set here for any values at or beyond the usual limits of such assays
Details: source organism: Homo sapiens
reported property: Kd

{"columns": ["entry sequence", "reported property", "experimental result"],
 "data": [
  ["YLDDRNTFR", "Kd", "≥ 20 µM"]
]}

###

Target: HLA-A*03:01
Test: IEDB peptide-MHC binding, purified MHC/direct/fluorescence; filed as Kd, often an IC50 or EC50 that approximates it; bounds were set here for any values at or beyond the usual limits of such assays
Settings: source organism: Cryptosporidium parvum Iowa II
Kd values by entry
reported property: Kd

{"columns": ["entry sequence", "test system", "reported property", "experimental result"],
 "data": [
  ["ILTRLALFF", "HLA-A*03:01", "Kd", "≥ 20 µM"],
  ["DHIPIINTL", "HLA-A*03:01", "Kd", "≥ 20 µM"]
]}

###

Target: HLA-A*24:02
Assay: IEDB peptide-MHC binding, purified MHC/competitive/fluorescence; filed as Kd, often an IC50 or EC50 that approximates it; bounds were set here for any values at or beyond the usual limits of such assays
Conditions: source organism: Escherichia coli B7A
pKd: −log10 of the molar value.
reported property: pKd

{"columns": ["entry sequence", "experimental result"],
 "data": [
  ["ITPTIYLLL", 9.15]
]}

###

Target: HLA-A*30:01
Test: IEDB peptide-MHC binding, purified MHC/competitive/radioactivity; filed as Kd, often an IC50 or EC50 that approximates it; bounds were set here for any values at or beyond the usual limits of such assays
Conditions: source organism: Mammarenavirus brazilense
pKd: −log10 of the molar value.
pKd values by entry
reported property: pKd

{"columns": ["entry sequence", "test system", "experimental result"],
 "data": [
  ["LSEMLNKEY", "HLA-A*30:01", 5.01],
  ["DTGNYILCY", "HLA-A*30:01", 5.61]
]}

###

Molecular target: HLA-A*02:12
Assay: IEDB peptide-MHC binding, purified MHC/direct/fluorescence; filed as Kd, often an IC50 or EC50 that approximates it; bounds were set here for any values at or beyond the usual limits of such assays
Settings: source organism: Mycobacterium tuberculosis str. Haarlem
pKd: −log10 of the molar value.
pKd values by entry

{"columns": ["entry sequence", "test system", "comparative sign", "pKd"],
 "data": [
  ["YLYDETQDV", "HLA-A*02:12", "=", 8.22],
  ["WASGVPAAT", "HLA-A*02:12", "≤", 4.70]
]}
